Every entry's value here was drawn from the nanobody polyreactivity screen of Harvey et al. (2022).

# assayRemarks: yeast display, Sf9 membrane polyspecificity reagent, FACS + sequencing; frameworks hold sequencing errors
readoutName: polyreactivity (PSR sort gate)

{"columns": ["itemSequence", "result"],
 "data": [
  ["QVQLVESGGGLVQAGGSLRLSCAASGRTFIYNTMGWYRQAPGKERELVAAITSGGSTNYADSVKGRFTISRDNAKNTVYLQMNSLKPEDTAVYYCATQGLSAPFDGFVNSRFDHWGQGTQVTVSS", "low polyreactivity"],
  ["QVQLVESGGGLVQAGGSLRLSCAASGRTFWRYAMGWYRQAPGKERELVARISWRGGSTNYADSVKGRFTISRDNAKITVYVQMNSLKAEDTAVYYCAADNSRYFLTGYDYWGQGTQVTVSS", "low polyreactivity"],
  ["QDQLVESGGGLVQAGGSLSLSCAASGSTYDRNAMGWYIQAPGKEREMVAGISFSGGTTYYADSVKGRFTISRDNAKNTVYLQMNRLKPEDTEVYDCAASTYQPGAVPFDYWGQGSQVTVSS", "low polyreactivity"],
  ["QVQLVESGGGLVQAGGRLRLSCAASGLTFKRYAMGWYRQAPGKERELVASITGNGGSTYYADSVKGRFTISRDNAKNTVYLQINSLKPEDTAVYYCNARRYVRTSQQPLYFYWGQGTQVTVSS", "high polyreactivity"],
  ["QVQLVESGGGLVQAGGSLRLSCAASGRIFNNYAMGWYRPAPGKERELVAAISTSGGSTYYADSVKGRFTISRDNAKNTVYLQMNSLKPEDTAVYYCNAVSRKRHYAPSYDYWGQGTQVTVSS", "high polyreactivity"],
  ["QDQLEESGGGLVQAGGSLRLSCGASGSIYDTNDMGWYRQAPGKERELVSAISSGGNTNYADSVKGRFTISRDNAKNTVYLQMKSVKPEDTAVYYWAAVWLGVYSVWTYHHYDYWGQGTQVTVSS", "low polyreactivity"],
  ["QVQLVESGGGLVQAGGSLRLSSDASGFIFSFNALGWYRQAPGKERELVAAISRSGGSTRYADSVKGRFTISRDNAKNTVYLQMNSLKPEDTAVYYCANRFASYRYHPGYDYWGQGTQVTVSS", "high polyreactivity"],
  ["QVQLVESGGGLVQAGGSLRLSCAASGSTFHYYAMGWYRQAPGKERELVAAITRGGNTYYADSVKGRFTISRGNAKNTVYLQMNSLKPEDTAVYYCAKDNLFEAYRYDYWGQGTQVTVSS", "low polyreactivity"],
  ["QVQLVESGGGLVQAGGSLRLSCAASGRIFYWYTMGWYRQAPGKERELVASISGSGGSTYYADSVKGRFTISRDNAKNTVYLQMNSLKPEDTAVYYCNKGSRWLRGLDYWGQGTQVTVSS", "high polyreactivity"],
  ["QVQLVESGGGLVQAGGSLRLSCAASGSTFPLYAMGWYRQAPGKERELVATISWGDGSTYYADSVKGRFTISRDTAKNTVYLQMNSLNPEETAVYYCAEDEYPDATTDATDKYYYWGQGTQVTVST", "low polyreactivity"],
  ["QVQLVESGGGLVQAGGSLRLSCAACGSTFNGYTMGWYRQAPGKERELVAAISKSGGRTYYADSVKGRFTISRDNAKNTVYLQMNSLKPEDTAVYYCNKLTQSSYGWGQGTQVTVSS", "high polyreactivity"]
]}

====

# assayRemarks: yeast display, Sf9 membrane polyspecificity reagent, FACS + sequencing; frameworks hold sequencing errors
readoutName: polyreactivity (PSR sort gate)

{"columns": ["itemSequence", "readoutName", "result"],
 "data": [
  ["QVQLVESGGGLVQAGVSLRISCAASGFTFPEYDMGWYRQAPGKERELVATISGNGGRTYYADSVKGRFTISRYNAKNTVYLQMNSLKPEDTAVYYCAALLYIRSVVYDYWGQGTQVTVSS", "polyreactivity (PSR sort gate)", "low polyreactivity"],
  ["QVQLVESGGGLVQAGGSLRLSCAASGIIFGVNVMGWYRQAPGKERELVATITWRGDSTYYADSVKGRFTISRDNAKNTVYLQMNSLKPEDTAVYYCAVLRSWWYRYDYWGQGTQVTVSS", "polyreactivity (PSR sort gate)", "low polyreactivity"],
  ["QVQLVESGGGLVQAGGSLRLSCAASGSTFNRYAMGWYRQAPGKERELVAAISWSGTRTYYADSVKGRFTISRDNAKNTVYLQMNSLKPEDTAVYYCAARRLYAGHQYDYWGQGTQVTVSS", "polyreactivity (PSR sort gate)", "high polyreactivity"],
  ["QVQLVESGGGLVQAGGSLRLSCAASGRTIDRNAMGWYRQPPGKERELVAAISGSGGRTYYADSVKGRFTISRDNEKNSVYLQMNSLKPEDTAVYYCAARVGSSPSKSKYDYWGQGTQVTVSS", "polyreactivity (PSR sort gate)", "high polyreactivity"],
  ["QVQLVESGGGLVQAGGSLRLSCAASGFIIGSYAMGWYRQAPGKERELVAAISRRTTNTYYADSVKGRFTISRDNAKNTVYLQMNSLKPEDTAVYYCARVTWYESDYWGQGTQVTVSS", "polyreactivity (PSR sort gate)", "high polyreactivity"],
  ["QVQLVESGGGLVQAGGSLRLSCAASGRTIDSNAMGWYRQAPGKERELVATIDRGGSTNYADSVKGRFTISRDNAKNTVYLQMNSLKPEDTAVYYCATRGHYHAFYYTYPRYDSWGQGTQVTVSS", "polyreactivity (PSR sort gate)", "low polyreactivity"],
  ["QVQLEESGRGLVQAGGSLRLSCAASGSTFWSYAMGWYRQAPGKERELVATITRAGTTNYADSVKGRFTISRDNAKNTVYLQMNSLKPVDTAVFYCATRRPIYVRAYDYWGQGTQVTVSS", "polyreactivity (PSR sort gate)", "high polyreactivity"],
  ["QVQLVESGGGLVQAGGSLRLSCAASGSTFYLYTMGWYRQAPGKERELVAAINRSGGRTYYADSVKGRFTISRDNAKNTVYLQMNSLKPEDTAVYYCATDSVTRGRSRGFDYWGQGTQVTVSS", "polyreactivity (PSR sort gate)", "high polyreactivity"],
  ["QVQLVESGGGLVQAGGSLRLSCAASGRIFIRNAMGWYRQAPGTERELVAAITSDGITYYADSVKGRFTISRDNATNTVYLQMNSLKPEDTAVYYCAKVGGWFSNLFIPRYREYNYWGQGTQVTVSP", "polyreactivity (PSR sort gate)", "low polyreactivity"],
  ["QVQLVESGGGIVQAGGSLRLSCAASGRILGANDMGWYRQAPGTERELVAAITSGGRTYYADSVKGRFTISRDNAKNTVYLQMNCLKPEDTAVYYCAVGGWDESVGKGYDYWGQGTQVTVSS", "polyreactivity (PSR sort gate)", "low polyreactivity"],
  ["QVQLVESGGGLVQAGGSLRLSCAASGSIFQHYAMGWYRQAPGKEREFVAAISGRGGGTYYADSVKGRFTISRDNAKNTVYLQMNSLKPEDTAVYYCAADYRGSYWRYYYWGQGTQVTVSS", "polyreactivity (PSR sort gate)", "high polyreactivity"],
  ["QVQLVESVGGLVQAGGSLRLSCAASGSTFTDYDMGWYRQAPGKERELVADISSGGSTYYADSVKGRFTISRDNAKNTVYLQMNSLKPEDTAVYYCNTDLRLVYRTKGFISWGYDYWGQGTQVTVSS", "polyreactivity (PSR sort gate)", "low polyreactivity"],
  ["QVQLEESGGCLVQAGGSLRLSCAASGSIFRHNVMGWYRPAPGKERELVAAISGGGGRTYYADSVKGRFTISRDNAKNTVYLQMNSQKPEDTAVYYCNAVGPGLYQGDSTDSRYNYWGQGTQVTVSS", "polyreactivity (PSR sort gate)", "high polyreactivity"],
  ["QVQLVESGGCLVQAGGSLRLSCAASGLTLDQYALGWYRQAPGKEREFVAAISYSGGNTYYADSVKGRFTISRDNAKYTVYLQMNSLKPEDTAVYYCAAYYFYFYHKVIWYELDYWGQGTQVTVSS", "polyreactivity (PSR sort gate)", "low polyreactivity"],
  ["QVQLDESGGRLVQAGGSLRLSCAASGSIFKVNAMGWYRQAPGKERELVAVISKRGGSTYYADSVKGRFTISRDHAKNTVYLQMNSLKPEDTAVYYCAAGKAPPSLRWVARIGKYEYWGQGTQVTVSS", "polyreactivity (PSR sort gate)", "low polyreactivity"],
  ["QVQLVESGVGLVQAGGSLRLSCDATGSILGINVMGWYRQAPGKEREVVAAISRRGGSTYYADSVKGRFTISRDNSKNTVYLQMNSLKPEDTAVYYCAAGTSYYYGSYRFYYWGQGTQVTVSS", "polyreactivity (PSR sort gate)", "high polyreactivity"],
  ["QVQLVESGGGLVQAGGSLRLSCAASGRIFPRNTMGWYRQAPGKQRELVAAISTRGGSTYYADSVKGRFTISRDNAKNTVYLQMNSLKPEDTAVYYCAAGRRFPAIYSTGNYWGQGTQVTVSS", "polyreactivity (PSR sort gate)", "high polyreactivity"],
  ["HVQLVESGGGLVQAGGSLRLSCAASGSICSWYGMGWYRQAPGKERELVAAITWTGGSTYYADSVKGRFTISRDNAKNTVYLQMNSLKQEDTAVYYCSADLRYVGFYYWGQGTQVTVSS", "polyreactivity (PSR sort gate)", "high polyreactivity"],
  ["QVHLVESAGCLVQAAGSLRLSCSASGFTFGYNTMGWFRQPPGKERELVAAISYGGGRTYYADSVKWRFTISRDNAKNTVYLQMNSLKPEDSAVYYCAAAPIPSLTYDYWGQGTQVTVSS", "polyreactivity (PSR sort gate)", "low polyreactivity"],
  ["QVQLVESGAGLVQAGGSLRLSCAASGSTFESNTMGWYRQAPGKERELVAAISYSGGRTYYADSVKGRFTISRDNAKNTVYLQMNSLKPEDTAVYYCNADLYPYYWYTTGEFGYWGQGTQVTVSS", "polyreactivity (PSR sort gate)", "high polyreactivity"],
  ["QVQLVESGGGLVQAGGSLRLSCAASGSIFRLYVMGWYRQAPGKERELVATITRSGGNTYYADSVKGRFTISRDNAKNTVYLQMNSLKPEDTAVYYCAAQSAKSGFYPYNRYDYWGQGTQVTVSS", "polyreactivity (PSR sort gate)", "low polyreactivity"]
]}
